- Assay System: MaxL homodimer (Homo sapiens, UniProt P61244 1-160)
- Sequence (P61244 whole entry): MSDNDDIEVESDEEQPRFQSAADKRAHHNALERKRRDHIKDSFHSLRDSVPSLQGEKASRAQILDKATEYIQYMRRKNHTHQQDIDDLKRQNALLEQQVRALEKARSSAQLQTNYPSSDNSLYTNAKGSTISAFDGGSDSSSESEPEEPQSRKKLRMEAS
- Experiment Description: universal protein-binding microarray (PBM); PBS-based mixture, 10 nM His-tagged protein dimer, 2% milk, 200 ng/uL BSA, 50 ng/uL salmon testes DNA, 0.02% TX-100; detection with Alexa 488 anti-His antibody;; high values mean tight binding;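 note: fluorescence intensity normalized to that of the highest-ranked 8-mer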
- Measurement Parameters: protein: recombinant; tags: C-terminal His-tag (pET21a); chain copies: 2; dsDNA, one strand shown
Over roughly 33,000 sequences, “normalized occupancy” has its median near 0.075; the highest 2% begin near 0.095. The entries come from a sample that favours the highest values as a whole.
Is binding signal at least 0.09 normalized occupancy? Then satisfied. If not, not satisfied.

Field: example entries. Status: answers known.
| Chain | Class |
| --- | --- |
| ATCATATC | not satisfied |
| GGGTGCTA | not satisfied |
| ATGTATTC | not satisfied |
| ACATGACC | satisfied |
| GCATGACC | satisfied |

State whether the measured binding signal reaches 0.09 normalized occupancy, counting equality as reaching it, for AGAGTGAC
not satisfied

State whether the measured binding signal reaches 0.09 normalized occupancy, counting equality as reaching it, for ACCTGTAA
not satisfied

State whether the measured binding signal reaches 0.09 normalized occupancy, counting equality as reaching it, for CTACACAC
satisfied

State whether the measured binding signal reaches 0.09 normalized occupancy, counting equality as reaching it, for CTACACGC
satisfied

State whether the measured binding signal reaches 0.09 normalized occupancy, counting equality as reaching it, for ACGTGCTA
satisfied
